Test details: qHTS assay to identify small molecule antagonists of the retinoic acid receptor (RAR) signaling pathway (AID 1159552; also: % is scaled to controls: 0 for no effect and ±100 for the full control effect; nearly all actives have a fitted effect of over 50% in size)
Test settings: C3RL4 RARE luciferase reporter, retinol-stimulated, 6 h; series mostly up to 92.4 µM
Inconclusive results are not listed. Active and inactive are the calls of the source. Calls follow the shape of the dose curve; as a rule, active = well fitted inhibition curve with a large enough effect in the repeat runs; inconclusive = weak or mixed curves, or effect the other way; inactive = no such curve, though single readings can be large or run the other way.
Recorded metric: activity, negative = inhibition

INSERT INTO measurements (compound, recorded_metric, val) VALUES
  ('c1ccc(CCc2ccccc2)cc1', 'activity, negative = inhibition', 'inactive'),
  ('CCCCOCCOC(=O)CCCCCCCCC(=O)OCCOCCCC', 'activity, negative = inhibition', 'inactive'),
  ('CCCCCCC1CCC(=O)O1 (stereo not given)', 'activity, negative = inhibition', 'inactive'),
  ('C=C[Si](OC(C)=O)(OC(C)=O)OC(C)=O', 'activity, negative = inhibition', 'inactive');

We next turn to a different compound, shown below.
Param item = NC(N)=NCCN1CCCCCCC1 ; retrieve measured activity, negative = inhibition.
16.3% [at 0.349 µM] (inactive)

* * *

Test details: Human pregnane X receptor (PXR) small molecule agonists, qHTS cell viability counter screen (AID 1346977); also: % is scaled to controls: 0 for no effect and ±100 for the full control effect; nearly all actives have a fitted effect of over 50% in size
Test settings: PXR-Luc HepG2 viability, CellTiter-Fluor, 24 h; series mostly up to 92.4 µM
Records with an inconclusive call do not appear. Calls of active or inactive are those of the source. The call rests on the fitted dose curve; in most records, active means well fitted cell-killing curve with a large enough effect in the repeat runs; inconclusive means weak or mixed curves, or effect the other way; inactive means flat fitted curve, though single readings scatter.
Recorded metric: activity change, negative = cytotoxicity

Use the examples below as a reference point.
INSERT INTO results (molecule, val) VALUES
  ('O=C(O)CC(C(=O)O)S(=O)(=O)O (stereo not given)', 'inactive'),
  ('CC1=NN(c2cccc(S(=O)(=O)O)c2)C(=O)C1', 'inactive'),
  ('CN(C)C(=O)Oc1ccc[n+](C)c1', 'inactive'),
  ('C[N+]1(C)[C@@H]2CC(OC(=O)[C@H](CO)c3ccccc3)C[C@H]1[C@@H]1O[C@@H]12 (stereo not given in full)', 'inactive');

We next turn to a different molecule, shown below.
Param item = CC1OC1C1CCC2(C)OC2C1 (stereo not given) ; retrieve measured activity change, negative = cytotoxicity.
inactive

* * *

System tested: Cytochrome P450 1A2 (Homo sapiens)
Test details: Cytochrome P450 Family 1 Subfamily A Member 2 (CYP1A2) small molecule antagonists: luciferase reporter qHTS assay (AID 1671199); also: nearly all actives have a fitted effect of over 50% in size
Test settings: P450-Glo CYP1A2 enzyme, luciferin luminescence, 1 h; series mostly up to 53 µM
Results filed as inconclusive are left out. Calls of active or inactive are those of the source. Calls come from the whole dose curve; as a rule, active = well fitted inhibition curve with a large enough effect in the repeat runs; inconclusive = weak or mixed curves; inactive = no such curve, though single readings can be large or run the other way.
Write down the outcome that applies. Available outcomes: active, inactive

Recorded test outcome, item CCNS(=O)(=O)c1ccc(C)cc1
active

Recorded test outcome, item CC(C)[C@H]1CC[C@@H](C)CC1=O
inactive

Recorded test outcome, item C=COCC1CCC(COC=C)CC1 (stereo not drawn)
inactive

* * *

Test details: qHTS assay for small molecule agonists of the p53 signaling pathway (AID 651631); also: % is scaled to controls: 0 for no effect and ±100 for the full control effect; nearly all actives have a fitted effect of over 15% in size
Test settings: HCT-116 p53RE-bla reporter, beta-lactamase FRET ratio, 16 h; series mostly up to 73.3 µM
Inconclusive results are not listed. Activity calls are given as the source filed them. Calls come from the whole dose curve.
Write down the outcome that applies. Available outcomes: class 1 = active, class 0 = inactive

INSERT INTO results (compound, category) VALUES
  ('CCCCCCCCCCCCCCC(=O)O', 'class 0'),
  ('CC(C)(CCC(=O)O)C(=O)O', 'class 0'),
  ('CC(C)CCCO', 'class 0'),
  ('CC(C)[C@H]1CC[C@@H](C)CC1=O', 'class 0'),
  ('CCC(C)(CN(C)C)OC(=O)c1ccccc1 (centres undefined)', 'class 0');

Recorded test outcome, item Cc1ccnc(NS(=O)(=O)c2ccc(N)cc2)n1
class 0

Recorded test outcome, item CCOC(=O)COC(=O)c1ccccc1C(=O)OCC
class 0

Recorded test outcome, item CC(C)CC(C)(N)C#N (centres undefined)
class 0

Recorded test outcome, item C=CCCCCCCCCC(=O)OCC
class 0

Recorded test outcome, item CC1=NS(=O)(=O)c2cc(Cl)ccc2N1
class 0

Recorded test outcome, item CC(CC=O)CC(C)(C)C (centres undefined)
class 0

Recorded test outcome, item CN(C)CCN(C)CCN(C)C
class 0
